Catalogue of median fluorescence fold over isotype control readings, one per entry.
biological target: SARS-CoV-2 full length spike protein, D614G mutant, expressed on CHO cells (SARS-CoV-2, UniProt P0DTC2 14-1273)
Give just the number in fold over isotype; leave the unit off.

Completed entries (count: 2):
[
  {
    "Binder": "antibody 387 (antibody, V domains shown) VH: QVQLVESGGGVVQPGRSLRLSCAASGFTFSSYGMHWVRQAPGKGLEWVAVISYDGSNKYYADSVKGRFTISRDNSKNTLYLQMNSLRAEDTAVYYCAKDDTKNYGDLDIDYWGQGTLVTVSS VL: SYELTQPSSVSVSPGQTARITCSGDVLAKKYARWFQQKPGQAPVLVIYKDSERPSGIPERFSGSSSGTTVTLTISGAQVEDEADYYCYSAADNNLGVFGGGTKLTVL",
    "Unit info": "fold over isotype",
    "Recorded measurement": 15.9
  },
  {
    "Binder": "antibody 399 (antibody, V domains shown) VH: QVQLVQSGAEVKKPGASVKVSCKASGYTFTSYGISWVRQAPGQGLEWMGWISAYNGNTNYAQKLQGRVTMTTDTSTSTAYMELRSLRSDDTAVYYCARDSGYDWAGGHYYYYGMDVWGQGTTVTVSS VL: QSALTQPASVSGSPGQSITISCTGTSSDVGGYNYVSWYQQHPGKAPKLMIYEVSNRPSGVSNRFSGSKSGNTASLTISGLQAEDEADYYCSSYTSSSTLVVFGGGTKLTVL",
    "Unit info": "fold over isotype",
    "Recorded measurement": 70.1
  }
]

median fluorescence fold over isotype control recorded for this binder, antibody 370 (antibody, V domains shown) VH: QVQLVESGGGVVPPGRSLSLPCAASGFTFSAYAMHWLRQAPGKGLEWVAVISYDGTVKYVADSVRGRFTISRDNSNNTLYLQMTSLRSDDTAVYYCARDLGALAAAPTVYFVHWGQGTLVTVSS VL: SYVLTQPPSVSVAPGKTATITCAGEDIGRKSVHWYQQKPGQAPVLVIFYYSDRPSGIPDRFSGSVSGNTATLTIGRVEAGDEADYFCQVWDRTTNHVIFGGGTKVTVL , is 9.47
